Tested on: BT-549 breast
Protocol Text: NCI-60 one-dose screen, 48 h
Test Context: 10 µM unless noted
The panel holds about 83,000 compounds, 20% with a hit somewhere; the sample as a whole holds those more often. Activity calls are given as the source filed them. Rule for the calls: active = growth percent below 10; inactive = the rest.
Select the matching outcome among 1 (active), 0 (inactive)

Look over these answered cases.
Cc1cc[c-]cc1.Fc1c[c-]c(-c2ccccn2)c(F)c1.[Pt+2].c1ccc(P(C[PH+](c2ccccc2)c2ccccc2)c2ccccc2)cc1 | 0
Cc1cc(C)c(-c2c(C)cc(C)cc2CBr)c(CBr)c1 | 0
O=C(c1ccc(Nc2nccc(NCCCCNc3ccnc4cc(Cl)ccc34)n2)cc1)N1CCCCC1 | 0
CCOC(=O)c1c2ncccc2n2c(=O)n(-c3ccccc3C)nnc12 | 0
COCN1CCC2N(COC)CCC3N(COC)CCC1N23 (configuration not stated) | 0
CCN(CC)S(=O)(=O)c1cccc(-c2ccc3c(NC(=O)C4CC4)n[nH]c3c2)c1 | 1

Exercise: Tell me the recorded outcome of this test for C=CC(=O)Nc1cccc(Oc2nccc(Nc3nnc(C4CC4)s3)n2)c1 .
Key: 0
